Test system: U251 CNS
Assay: NCI-60 one-dose screen, 48 h (100 = growth as untreated, 0 = no growth, -100 = all killed)
Conditions: 10 µM unless noted
The panel holds about 83,000 compounds, 20% with a hit somewhere; the sample as a whole holds those more often. Calls of active or inactive are those of the source. Rule for the calls: active = growth percent below 10; inactive = the rest.
Measured Parameter: growth

**Q:** // growth lookup, key: N#Cc1ccc(-c2ccc3c(c2)NC(=O)/C3=C\c2ccc[nH]2)cc1
**A:** 103% (inactive)

**Q:** // growth lookup, key: C=C(C)[C@H]1CC/C(C)=C/CC[C@]2(C)O[C@H]2CC/C(COC(=O)[C@@H](OC(C)=O)[C@H](NC(=O)c2ccccc2)c2ccccc2)=C\[C@@H]1O
**A:** 99.2% (inactive)

**Q:** // growth lookup, key: COc1cc(-c2nc3occn3c2-c2ccnc(NCCNS(=O)(=O)c3ccc(Cl)cc3)n2)ccc1F
**A:** 90% (inactive)

**Q:** // growth lookup, key: CCOC(=O)N1CCc2c(sc3nc4nc[nH]n4c(=O)c23)C1
**A:** 100% (inactive)

**Q:** // growth lookup, key: O=S(=O)(NCCNc1nccc(-c2c(-c3ccc(F)c(O)c3)nc3sccn23)n1)c1ccccc1
**A:** 98.8% (inactive)

**Q:** // growth lookup, key: COc1cccc(CCC(=O)c2cc3c(N)c(C(=O)Nc4ccccc4)sc3nc2C)c1
**A:** 26.2% (inactive)

**Q:** // growth lookup, key: Nc1nc(N)nc(NCc2ccccc2)n1
**A:** 105% (inactive)

**Q:** // growth lookup, key: CC(=O)N1N=C(c2cccc(Nc3ccncc3)c2)CC1c1ccc2c(c1)OCO2 (centres undefined)
**A:** 82.8% (inactive)

**Q:** // growth lookup, key: COc1ccc(C(O)c2cc3c(N)c(C(=O)Nc4ccc(Br)cc4)sc3nc2C)cc1 (centres undefined)
**A:** 17.2% (inactive)

**Q:** // growth lookup, key: CCCC1C(C(=O)OCC)=C(N)Oc2cc(O)ccc21 (centres undefined)
**A:** 104% (inactive)

**Q:** // growth lookup, key: COc1cnccc1-c1nc2ccc3[nH]ncc3c2c2c1CCCC2
**A:** 83.9% (inactive)

**Q:** // growth lookup, key: O=C1CCCCCCCCC(O)C(O)CCCC(c2cccs2)O1 (centres undefined)
**A:** 98.3% (inactive)

**Q:** // growth lookup, key: Nc1c(C(=O)Nc2ccc(Cl)cc2)cc(-c2nc3ccccc3s2)c(=O)n1NS(=O)(=O)c1ccc(Cl)cc1
**A:** 104% (inactive)

**Q:** // growth lookup, key: COc1ccc(NS(=O)(=O)c2ccc(C)cc2)c([N+](=O)[O-])c1
**A:** 93.3% (inactive)

**Q:** // growth lookup, key: CCN1C(=O)N(CC)C2NC(SC)=NC21 (centres undefined)
**A:** 101% (inactive)

**Q:** // growth lookup, key: CCC1(CC)NC(=O)c2c(c3ccc(Cl)c(Cl)c3n2C)C1C#N (centres undefined)
**A:** 96.1% (inactive)

**Q:** // growth lookup, key: CC(C)(C)OC(=O)N1C/C(=C\c2ccoc2)C(=O)/C(=C/c2ccoc2)C1
**A:** 88.2% (inactive)

**Q:** // growth lookup, key: CCCc1cc2c(cc1Br)OCO2
**A:** 100% (inactive)

**Q:** // growth lookup, key: C#Cc1cccc(NC(=O)Nc2cccc(N=C=S)c2)c1
**A:** 96.9% [8.25 µM] (inactive)
